- Procedure Details: Cell growth inhibition, CellTiter-Glo Luminescent Cell Viability Assay
- Assay type: cell-based
- Applied Conditions: MOLM-13, 96 h, read-out: Cell Growth Inhibition IC50 (μM) MOLM13
The entries below come with measured IC50 values attached.
Please reply with the bare figure in µM and do not write the unit itself.

See these solved cases before continuing.
>>> result_value("N#Cc1ccc(OCCCN2CCC(C3(C4CCCC4)NCCc4ccccc43)CC2)cc1 (stereo not shown) [compound 27]")
3.6
>>> result_value("CNC(=O)O[C@H]1CCC[C@@H]1C(Cn1ccnc1)(c1ccccc1)C1CCN(CC2CN(c3ccc(C#N)cc3)C2)CC1 (mixture of isomers) [Cpd. No. 366]")
0.14
>>> result_value("CNC(=O)O[C@H]1CCC[C@@H]1C(Cn1ccnc1)(c1ccccc1)C1CCN(CC2CN(c3ccc(S(=O)(=O)c4cnn(C)c4)cc3)C2)CC1 (mixture of isomers) [compound 238]")
0.16

Query string: Give reported IC50 value for CNC(=O)O[C@H]1CCC[C@@H]1C1(C2CCN(CC3CN(c4ccc(S(=O)(=O)c5ccncc5)cc4)C3)CC2)CN(C)Cc2ccccc21 (mixture of isomers) [Cpd. No. 210]
Result string: 0.135

###

The entries below come with measured pIC50 values attached.
- System Tested: menin protein (Homo sapiens (Human))
- Sequence (O00255 whole entry): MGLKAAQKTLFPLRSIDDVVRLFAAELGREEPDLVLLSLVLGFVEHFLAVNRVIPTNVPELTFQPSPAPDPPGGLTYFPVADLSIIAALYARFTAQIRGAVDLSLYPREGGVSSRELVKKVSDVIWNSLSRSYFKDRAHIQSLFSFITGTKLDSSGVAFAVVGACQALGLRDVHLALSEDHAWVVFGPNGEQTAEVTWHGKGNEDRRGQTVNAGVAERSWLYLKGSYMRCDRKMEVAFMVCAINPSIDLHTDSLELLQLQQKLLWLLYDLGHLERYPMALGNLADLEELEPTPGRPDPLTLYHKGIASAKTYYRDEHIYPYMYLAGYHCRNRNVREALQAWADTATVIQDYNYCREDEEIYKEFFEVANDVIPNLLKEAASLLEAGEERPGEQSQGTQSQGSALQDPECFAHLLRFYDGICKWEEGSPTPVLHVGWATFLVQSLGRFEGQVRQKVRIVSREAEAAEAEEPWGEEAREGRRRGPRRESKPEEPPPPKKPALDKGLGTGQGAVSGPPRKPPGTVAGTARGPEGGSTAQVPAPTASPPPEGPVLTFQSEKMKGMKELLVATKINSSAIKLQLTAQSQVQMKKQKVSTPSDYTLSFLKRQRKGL
- Procedure Details: biochemical
- Format: binding
- Applied Conditions: FP competitive binding; menin protein 4 nM, FAM-MM2 probe 2 nM; read-out: Menin Binding Affinity IC50
pIC50 (log units): -log10 of the concentration in mol/L.

See these solved cases before continuing.
>>> result_value("N#CC(c1ccccc1)(C1CCN(CC2CN(c3ccc(S(=O)(=O)c4ccncc4)cc3)C2)CC1)[C@H]1CCC[C@@H]1OC(=O)C1CC1 (mixture of isomers)")
7.74
>>> result_value("CCc1nccn1CC(c1ccccc1)(C1CCN(CC2CN(c3ccc(C#N)cc3)C2)CC1)[C@H]1CCC[C@@H]1OC(=O)NC (mixture of isomers)")
8.52
>>> result_value("CC(C)C(=O)N1CCCCC1C1(C2CCN(CCCOc3ccc(C#N)cc3)CC2)CN(C)Cc2ccccc21 (stereo not shown) [compound 299]")
4.77
>>> result_value("CCO[C@@H]1CCC[C@H]1C(C#N)(c1ccccc1)C1CCN(CC2CN(c3ccc(S(C)(=O)=O)cc3)C2)CC1 (mixture of isomers)")
4.69
>>> result_value("CSC[C@H]1CCC[C@@H]1C(C#N)(c1ccccc1)C1CCN(CC2CN(c3ccc(S(=O)(=O)c4ccncc4)cc3)C2)CC1 (mixture of isomers)")
4.99

Query string: Provide menin protein (Homo sapiens (Human)) pIC50 reading for CNC(=O)N[C@H]1CCC[C@@H]1C(CNC(=O)c1cocn1)(c1ccccc1)C1CCN(CC2CN(c3ccc(C#N)cc3)C2)CC1 (mixture of isomers) .
Result string: 7.49

Query string: Provide menin protein (Homo sapiens (Human)) pIC50 reading for COC(=O)N[C@H]1CCC[C@@H]1C(C#N)(c1ccccc1)C1CCN(CC2(C)CN(c3ccc(S(=O)(=O)c4cnn(C)c4)cc3)C2)CC1 (mixture of isomers) .
Result string: 6.78

Query string: Provide menin protein (Homo sapiens (Human)) pIC50 reading for CC(=O)O[C@H]1CCC[C@@H]1C(C#N)(c1ccccc1)C1CCN(CC2CN(c3ccc(S(=O)(=O)C4CC4)cc3)C2)CC1 (mixture of isomers) .
Result string: 7.74

Query string: Provide menin protein (Homo sapiens (Human)) pIC50 reading for CC(=O)N[C@H]1CCC[C@@H]1C(Cn1ccnc1)(c1ccccc1)C1CCN(CC2CN(c3ccc(S(=O)(=O)c4ccccc4)cc3)C2)CC1 (mixture of isomers) .
Result string: 7.89

Query string: Provide menin protein (Homo sapiens (Human)) pIC50 reading for CC(=O)O[C@@H]1CCC[C@H]1C1(C2CCN(CC3CN(c4ccc(S(=O)(=O)C5CC5)cc4)C3)CC2)CN(C)Cc2ccccc21 (mixture of isomers) .
Result string: 6.91

Query string: Provide menin protein (Homo sapiens (Human)) pIC50 reading for O=S(=O)(CC1CCCC1)c1ccc(N2CC(CN3CCC(C4(C5CCCC5)NCCc5ccccc54)CC3)C2)cc1 (stereo not shown) .
Result string: 7.38

Query string: Provide menin protein (Homo sapiens (Human)) pIC50 reading for N#Cc1ccc(OCCCCN2CC(C3(C4CCCC4)NCCc4ccccc43)C2)cc1 (stereo not shown) .
Result string: 4.44

Query string: Provide menin protein (Homo sapiens (Human)) pIC50 reading for O=C(Cc1ccc(S(=O)(=O)C2CC2)cc1)N1CCc2cc(C3(C4CCCC4)NCCc4ccccc43)ccc2C1 (stereo not shown) .
Result string: 5.33

Origin of values: patent US10899738B2
